subject_of_test: Aβ42 (Homo sapiens)
Sequence (P05067 672-713): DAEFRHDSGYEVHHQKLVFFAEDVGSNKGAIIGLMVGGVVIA
procedure_summary: Th-T (thioflavin-T) assay of Aβ42 aggregation
Assay type: biochemical
conditions: concentration 10, unit not given; time-course reading M145
Assign 1 to entries whose Th-T fluorescence of Aβ42 with compound, mean of three wells (Fig. 7a source data) meets or exceeds 3; assign -1 to the rest.

These recorded examples may help you get a feel for the data.
C=C1CC[C@@H]2[C@](C)(CC[C@H]3O[C@H](C=C(C)C)C[C@@]23C)[C@@H]1Cc1c(OC)oc(CO)c(C)c1=O [Compound 20] :: 1
C=C1CCC2C(C)(CCC=C(C)C)C(O)CCC2(C)C1Cc1c(OC)oc(CO)c(C(=O)OC)c1=O (centres unmarked) [Compound 13] :: -1
C=C1CC[C@@H]2[C@](C)(CC[C@H]3O[C@H](C=C(C)C)C[C@@]23C)[C@@H]1Cc1c(OC)oc(CO)c(C(=O)OC)c1=O [Compound 21] :: -1

-- ask Exam item: decide whether the reported Th-T fluorescence of Aβ42 with compound, mean of three wells (Fig. 7a source data) for C=C1CCC2C(C)(CCC=C(C)C)C(O)CCC2(C)C1Cc1c(OC)oc(CO)c(C)c1=O (centres unmarked) [Compound 12] is at least 3.
-- reply -1

---

In this section we review reported Th-T fluorescence, mean of three wells values for a set of compounds.
subject_of_test: Aβ42 (Homo sapiens)
procedure_summary: Th-T (thioflavin-T) assay of Aβ42 aggregation
Assay type: biochemical
conditions: compound at 10; reading M57 of time course
Number only, please.

-- ask Which Th-T fluorescence, mean of three wells value belongs to C=C1CCC2C(C)(CCC=C(C)C)C(O)CCC2(C)C1Cc1c(OC)oc(CO)c(C(=O)OC)c1=O (centres unmarked) [Compound 13] ?
-- reply 1.551

-- ask Which Th-T fluorescence, mean of three wells value belongs to C=C1CC[C@@H]2[C@](C)(CC[C@H]3O[C@H](C=C(C)C)C[C@@]23C)[C@@H]1Cc1c(OC)oc(CO)c(C)c1=O [Compound 20] ?
-- reply 3.456

-- ask Which Th-T fluorescence, mean of three wells value belongs to C=C1CC[C@@H]2[C@](C)(CC[C@H]3O[C@H](C=C(C)C)C[C@@]23C)[C@@H]1Cc1c(OC)oc(CO)c(C(=O)OC)c1=O [Compound 21] ?
-- reply 0.3204

-- ask Which Th-T fluorescence, mean of three wells value belongs to C=C1CCC2C(C)(CCC=C(C)C)C(O)CCC2(C)C1Cc1c(OC)oc(CO)c(C)c1=O (centres unmarked) [Compound 12] ?
-- reply 3.454

-- ask Which Th-T fluorescence, mean of three wells value belongs to C=C1CCC2C(C)(CCC=C(C)C)C(O)CCC2(C)C1Cc1c(OC)oc(C)c(C(=O)OC)c1=O (centres unmarked) [Compound 14] ?
-- reply 2.58

---

subject_of_test: Aβ42 (Homo sapiens)
procedure_summary: Th-T (thioflavin-T) assay of Aβ42 aggregation
Assay type: biochemical
conditions: head suffix _50 (concentration 50); reading M64
Assign 1.0 to entries whose Th-T fluorescence of Aβ42 (sheet Fig. 7a), mean of three wells meets or exceeds 1; assign 0.0 to the rest.

C=C1CC[C@@H]2[C@](C)(CC[C@H]3O[C@H](C=C(C)C)C[C@@]23C)[C@@H]1Cc1c(OC)oc(CO)c(C)c1=O :: 1.0
C=C1CCC2C(C)(CCC=C(C)C)C(O)CCC2(C)C1Cc1c(OC)oc(CO)c(C(=O)OC)c1=O (centres unmarked) :: 0.0
C=C1CCC2C(C)(CCC=C(C)C)C(O)CCC2(C)C1Cc1c(OC)oc(C)c(C(=O)OC)c1=O (centres unmarked) :: 1.0
C=C1CC[C@@H]2[C@](C)(CC[C@H]3O[C@H](C=C(C)C)C[C@@]23C)[C@@H]1Cc1c(OC)oc(CO)c(C(=O)OC)c1=O :: 0.0

-- ask Exam item: decide whether the reported Th-T fluorescence of Aβ42 (sheet Fig. 7a), mean of three wells for C=C1CCC2C(C)(CCC=C(C)C)C(O)CCC2(C)C1Cc1c(OC)oc(CO)c(C)c1=O (centres unmarked) is at least 1.
-- reply 1.0

---

subject_of_test: Aβ42 (Homo sapiens)
procedure_summary: Th-T (thioflavin-T) assay of Aβ42 aggregation
Assay type: biochemical
conditions: reading M109; compound at 10 (head suffix _10)
metric: Th-T fluorescence, mean of three wells (Fig. 7a)
Number only, please.

-- ask Which Th-T fluorescence, mean of three wells (Fig. 7a) value belongs to C=C1CCC2C(C)(CCC=C(C)C)C(O)CCC2(C)C1Cc1c(OC)oc(C)c(C(=O)OC)c1=O (centres unmarked) ?
-- reply 2.86

-- ask Which Th-T fluorescence, mean of three wells (Fig. 7a) value belongs to C=C1CCC2C(C)(CCC=C(C)C)C(O)CCC2(C)C1Cc1c(OC)oc(CO)c(C)c1=O (centres unmarked) ?
-- reply 2.719

-- ask Which Th-T fluorescence, mean of three wells (Fig. 7a) value belongs to "C=C1CC[C@@H]2[C@](C)(CC[C@H]3O[C@H](C=C(C)C)C[C@@]23C)[C@@H]1Cc1c(OC)oc(CO)c(C)c1=O" ?
-- reply 3.248

-- ask Which Th-T fluorescence, mean of three wells (Fig. 7a) value belongs to "C=C1CC[C@@H]2[C@](C)(CC[C@H]3O[C@H](C=C(C)C)C[C@@]23C)[C@@H]1Cc1c(OC)oc(CO)c(C(=O)OC)c1=O" ?
-- reply 1.641

-- ask Which Th-T fluorescence, mean of three wells (Fig. 7a) value belongs to C=C1CCC2C(C)(CCC=C(C)C)C(O)CCC2(C)C1Cc1c(OC)oc(CO)c(C(=O)OC)c1=O (centres unmarked) ?
-- reply 1.548

---

In this section we review reported Th-T fluorescence, mean of three wells (Fig. 7a) values for a set of compounds.
subject_of_test: Aβ42 (Homo sapiens)
procedure_summary: Th-T (thioflavin-T) assay of Aβ42 aggregation
Type: biochemical
conditions: column suffix _20; measurement M19

Solved entries:
C=C1CCC2C(C)(CCC=C(C)C)C(O)CCC2(C)C1Cc1c(OC)oc(CO)c(C(=O)OC)c1=O (centres unmarked) :: 0.1811
C=C1CC[C@@H]2[C@](C)(CC[C@H]3O[C@H](C=C(C)C)C[C@@]23C)[C@@H]1Cc1c(OC)oc(CO)c(C(=O)OC)c1=O :: 0.1942
C=C1CC[C@@H]2[C@](C)(CC[C@H]3O[C@H](C=C(C)C)C[C@@]23C)[C@@H]1Cc1c(OC)oc(CO)c(C)c1=O :: 3.146
C=C1CCC2C(C)(CCC=C(C)C)C(O)CCC2(C)C1Cc1c(OC)oc(CO)c(C)c1=O (centres unmarked) :: 2.538

-- ask Give Aβ42 (Homo sapiens) Th-T fluorescence, mean of three wells (Fig. 7a) for C=C1CCC2C(C)(CCC=C(C)C)C(O)CCC2(C)C1Cc1c(OC)oc(C)c(C(=O)OC)c1=O (centres unmarked)
-- reply 1.051

---

procedure_summary: cytotoxicity in Drosophila l(2)mbn cells
Assay type: cell-based
conditions: Drosophila, l(2)mbn cells (larval blood cell-derived), 10 µM, replicate 2, relative to DMSO 1%, read-out: % viability, viability 2
The threshold is 8%. Values of viability at 10 µM beneath it are tagged t; values meeting or exceeding it are tagged f.

C=C1CC[C@H]2[C@]3(C)C[C@@H](C=C(C)C)O[C@H]3CC[C@]2(C)[C@@H]1Cc1c(OC)oc(CO)c(C)c1=O :: t

-- ask Bench note: check whether C=C1CCC2C3(C)CC(C=C(C)C)OC3CCC2(C)C1Cc1c(OC)oc(C)c(C)c1=O (centres unmarked) shows viability at 10 µM below 8%
-- reply t

-- ask Bench note: check whether C=C1CCC2C(C)(CC(=O)C=C(C)C)C(O)CCC2(C)C1Cc1c(OC)oc(C)c(C)c1=O (centres unmarked) shows viability at 10 µM below 8%
-- reply f

-- ask Bench note: check whether C=C1CCC2C(C)(CCC=C(C)C)C(O)CCC2(C)C1Cc1c(OC)oc(CO)c(C(=O)OC)c1=O (centres unmarked) shows viability at 10 µM below 8%
-- reply f

---

subject_of_test: UniProtKB P05067
procedure_summary: Th-T (thioflavin-T) assay of Aβ42 aggregation
Type: biochemical
conditions: compound at 20; reading M44 of time course
In this section we review reported Th-T fluorescence, mean of three wells values for a set of compounds.
Number only, please.

C=C1CC[C@@H]2[C@](C)(CC[C@H]3O[C@H](C=C(C)C)C[C@@]23C)[C@@H]1Cc1c(OC)oc(CO)c(C(=O)OC)c1=O [Compound 21] :: 0.212

-- ask Which Th-T fluorescence, mean of three wells value belongs to C=C1CC[C@@H]2[C@](C)(CC[C@H]3O[C@H](C=C(C)C)C[C@@]23C)[C@@H]1Cc1c(OC)oc(CO)c(C)c1=O [Compound 20] ?
-- reply 3.412

-- ask Which Th-T fluorescence, mean of three wells value belongs to C=C1CCC2C(C)(CCC=C(C)C)C(O)CCC2(C)C1Cc1c(OC)oc(C)c(C(=O)OC)c1=O (centres unmarked) [Compound 14] ?
-- reply 2.111

-- ask Which Th-T fluorescence, mean of three wells value belongs to C=C1CCC2C(C)(CCC=C(C)C)C(O)CCC2(C)C1Cc1c(OC)oc(CO)c(C)c1=O (centres unmarked) [Compound 12] ?
-- reply 2.199

-- ask Which Th-T fluorescence, mean of three wells value belongs to C=C1CCC2C(C)(CCC=C(C)C)C(O)CCC2(C)C1Cc1c(OC)oc(CO)c(C(=O)OC)c1=O (centres unmarked) [Compound 13] ?
-- reply 0.4829
